Target: HIV-1 Env of isolate MGRM-F1-004 (subtype F) (HIV-1)
Experiment: cell-based or functional assay
assayReadout: IC50 (neutralization) (µg/mL)
Reply numerically in µg/mL, unit not repeated.

binder: PGT-128 (antibody, V domains shown) VH: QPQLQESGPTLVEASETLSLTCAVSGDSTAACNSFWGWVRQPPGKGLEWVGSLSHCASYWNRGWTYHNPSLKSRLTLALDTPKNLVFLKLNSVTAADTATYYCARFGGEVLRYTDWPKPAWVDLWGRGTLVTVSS VL: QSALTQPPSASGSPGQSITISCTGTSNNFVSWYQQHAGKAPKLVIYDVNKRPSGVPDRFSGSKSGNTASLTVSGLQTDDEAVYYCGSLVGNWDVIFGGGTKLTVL
IC50 (neutralization) [µg/mL]: 0.027
//
binder: PGT-131 (antibody, V domains shown) VH: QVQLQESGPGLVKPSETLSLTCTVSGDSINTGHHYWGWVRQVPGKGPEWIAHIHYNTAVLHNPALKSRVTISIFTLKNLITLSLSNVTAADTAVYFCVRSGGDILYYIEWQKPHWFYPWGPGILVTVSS VL: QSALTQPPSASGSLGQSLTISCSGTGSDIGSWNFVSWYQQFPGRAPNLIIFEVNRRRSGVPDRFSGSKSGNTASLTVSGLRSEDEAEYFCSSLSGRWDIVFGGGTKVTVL
IC50 (neutralization) [µg/mL]: 0.114

Shift focus to the following entry.
Prompt line: Tell me the measured IC50 (neutralization) of PGT-127 (antibody, V domains shown) VH: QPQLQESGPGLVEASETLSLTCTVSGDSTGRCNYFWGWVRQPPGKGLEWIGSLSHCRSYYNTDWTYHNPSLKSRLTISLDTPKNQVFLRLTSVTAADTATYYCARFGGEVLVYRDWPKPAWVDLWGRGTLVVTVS VL: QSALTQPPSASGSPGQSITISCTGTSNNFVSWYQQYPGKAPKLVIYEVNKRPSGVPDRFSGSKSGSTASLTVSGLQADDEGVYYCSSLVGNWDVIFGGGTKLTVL , please.
Response line: 0.068
